# test.description: qHTS of pediatric cancer cell lines to identify multiple opportunities for drug repurposing: Primary screen for MG 63 (6-TG R) cells (AID 1347105); note: nearly all actives have a fitted effect of over 50% in size
# experimental.conditions: MG 63 (6-TG R) viability, CellTiter-Glo, 48 h; series mostly up to 46 µM
Records with an inconclusive call do not appear. Calls of active or inactive are those of the source. Calls come from the whole dose curve; as a rule, active = well fitted cell-killing curve with a large enough effect; inconclusive = small, poorly fitted or top-dose-only effect; inactive = no such curve, though single readings can be large or run the other way.
Can you answer with just one of these options? active, inactive

Problem: Test call for this molecule, please: Cc1c(C(=O)c2cccc3ccccc23)c2cccc3c2n1[C@H](CN1CCOCC1)CO3
Solution: active

Problem: What call does the record list for Cc1ccc(Cl)c(O)c1 ?
Solution: inactive

Problem: # fetch the recorded call for CN(C)NC(=O)CCC(=O)O here
Solution: inactive

Problem: Give the logged outcome of this assay for the following molecule: C=CCC1=C(C)C(OC(=O)C2C(C=C(C)C)C2(C)C)CC1=O (centres undefined)
Solution: inactive

Problem: Per the records of this test, what outcome belongs to CCO/N=C(\CC)C1=C(O)CC(c2c(C)cc(C)cc2C)CC1=O (centres undefined) ?
Solution: inactive

Problem: Per the assay record, what outcome was assigned to Oc1ccc2c3c1O[C@H]1c4[nH]c5c(c4C[C@@]4(O)[C@@H](C2)N(CC2CC2)CC[C@]314)C[C@@]1(O)[C@H]2Cc3ccc(O)c4c3[C@@]1(CCN2CC1CC1)[C@H]5O4 ?
Solution: inactive

Problem: Recorded test outcome, item CS(=O)(=O)c1ccc(C(=O)C2C(=O)CCCC2=O)c([N+](=O)[O-])c1
Solution: inactive

Problem: In this assay, the call recorded for CCN(CC)C(=O)c1ccc(C2=CC3(CCNCC3)Oc3cccc(O)c32)cc1 was what?
Solution: inactive

Problem: What classification did CCN1C[C@]2(OC(=O)c3ccccc3NC(C)=O)CC[C@H](OC)[C@@]34[C@H]5CC6[C@@H](OC)C[C@](O)(C(C[C@@H]23)[C@@H]14)[C@@]5(O)[C@@H]6OC end up with in this test?
Solution: inactive

Problem: // return assay outcome for C[C@@H]1O[C@@H](O[C@@H]2C=C3CC[C@@H]4[C@@H](CC[C@]5(C)[C@H](c6ccc(=O)oc6)CC[C@@]45O)[C@@]3(C)CC2)[C@H](O)[C@H](O)[C@H]1O
Solution: active

Problem: Which outcome did this test record for the molecule CSCC[C@@H](NC(=O)[C@@H](Cc1ccccc1)NC(=O)CNC(=O)CNC(=O)[C@@H](N)Cc1ccc(O)cc1)C(=O)O ?
Solution: inactive

Problem: // param item: O=C(O)c1cc(Oc2ccc(C(F)(F)F)cc2Cl)ccc1[N+](=O)[O-] ; yields the recorded call
Solution: inactive

Problem: What call does the record list for Nc1c(Cl)c(Cl)c(Cl)c(Cl)c1Cl ?
Solution: inactive

Problem: Please let me know the test result on file for CCCC[N+]1(C)[C@H]2CC(OC(=O)[C@H](CO)c3ccccc3)C[C@H]1[C@H]1O[C@H]12 (some centres undefined) .
Solution: inactive

Problem: Any idea what this test logged for CC(C)Oc1cccc(NC(=O)c2ccccc2C(F)(F)F)c1 ?
Solution: inactive

Problem: Dear colleague, could you share the recorded outcome for C=CC(=O)NCNC(=O)C=C when you have a moment?
Solution: inactive

Problem: Outcome? O=C(Oc1ccc([N+](=O)[O-])cc1)N1CCN(Cc2cccc(Oc3ccccc3)c2)CC1
Solution: active

Problem: // param item: CC[C@@H]1[C@@H](C)O[C@@](O)([C@@H](C)[C@H](O)[C@H](C)[C@H]2OC(=O)C=CC=C[C@@H](C)[C@@H]([C@@H](C)[C@@H](O)[C@H](C)[C@@]3(O)C[C@H](O[C@H]4C[C@H](O)[C@H](O)[C@H](C)O4)[C@H](CC)[C@@H](C)O3)OC(=O)C=CC=C[C@@H]2C)C[C@H]1O[C@H]1C[C@H](O)[C@H](O)[C@H](C)O1 ; yields the recorded call
Solution: active

Problem: Hi, sorry to bother you, what did the test record for C=C[C@@H]1CN2CCC1C[C@H]2[C@H](O)c1ccnc2ccccc12 (some centres undefined) ?
Solution: inactive
